Source: patent US11566022B2

target: HiBit-WIZ fusion protein (Homo sapiens, UniProt O95785+Q96SW2); test: Quantification of WIZ protein levels in HiBit tag fusion protein assay (WIZ HiBit assay in 293T cells); type: cell-based; design: dose or concentration left out as unconfirmed; conditions: HEK-293T, 100 minus Amax; 293T cells; read-out: % degradation of WIZ (100-Amax)
Sequence (O95785 whole entry, the tested form may be a part): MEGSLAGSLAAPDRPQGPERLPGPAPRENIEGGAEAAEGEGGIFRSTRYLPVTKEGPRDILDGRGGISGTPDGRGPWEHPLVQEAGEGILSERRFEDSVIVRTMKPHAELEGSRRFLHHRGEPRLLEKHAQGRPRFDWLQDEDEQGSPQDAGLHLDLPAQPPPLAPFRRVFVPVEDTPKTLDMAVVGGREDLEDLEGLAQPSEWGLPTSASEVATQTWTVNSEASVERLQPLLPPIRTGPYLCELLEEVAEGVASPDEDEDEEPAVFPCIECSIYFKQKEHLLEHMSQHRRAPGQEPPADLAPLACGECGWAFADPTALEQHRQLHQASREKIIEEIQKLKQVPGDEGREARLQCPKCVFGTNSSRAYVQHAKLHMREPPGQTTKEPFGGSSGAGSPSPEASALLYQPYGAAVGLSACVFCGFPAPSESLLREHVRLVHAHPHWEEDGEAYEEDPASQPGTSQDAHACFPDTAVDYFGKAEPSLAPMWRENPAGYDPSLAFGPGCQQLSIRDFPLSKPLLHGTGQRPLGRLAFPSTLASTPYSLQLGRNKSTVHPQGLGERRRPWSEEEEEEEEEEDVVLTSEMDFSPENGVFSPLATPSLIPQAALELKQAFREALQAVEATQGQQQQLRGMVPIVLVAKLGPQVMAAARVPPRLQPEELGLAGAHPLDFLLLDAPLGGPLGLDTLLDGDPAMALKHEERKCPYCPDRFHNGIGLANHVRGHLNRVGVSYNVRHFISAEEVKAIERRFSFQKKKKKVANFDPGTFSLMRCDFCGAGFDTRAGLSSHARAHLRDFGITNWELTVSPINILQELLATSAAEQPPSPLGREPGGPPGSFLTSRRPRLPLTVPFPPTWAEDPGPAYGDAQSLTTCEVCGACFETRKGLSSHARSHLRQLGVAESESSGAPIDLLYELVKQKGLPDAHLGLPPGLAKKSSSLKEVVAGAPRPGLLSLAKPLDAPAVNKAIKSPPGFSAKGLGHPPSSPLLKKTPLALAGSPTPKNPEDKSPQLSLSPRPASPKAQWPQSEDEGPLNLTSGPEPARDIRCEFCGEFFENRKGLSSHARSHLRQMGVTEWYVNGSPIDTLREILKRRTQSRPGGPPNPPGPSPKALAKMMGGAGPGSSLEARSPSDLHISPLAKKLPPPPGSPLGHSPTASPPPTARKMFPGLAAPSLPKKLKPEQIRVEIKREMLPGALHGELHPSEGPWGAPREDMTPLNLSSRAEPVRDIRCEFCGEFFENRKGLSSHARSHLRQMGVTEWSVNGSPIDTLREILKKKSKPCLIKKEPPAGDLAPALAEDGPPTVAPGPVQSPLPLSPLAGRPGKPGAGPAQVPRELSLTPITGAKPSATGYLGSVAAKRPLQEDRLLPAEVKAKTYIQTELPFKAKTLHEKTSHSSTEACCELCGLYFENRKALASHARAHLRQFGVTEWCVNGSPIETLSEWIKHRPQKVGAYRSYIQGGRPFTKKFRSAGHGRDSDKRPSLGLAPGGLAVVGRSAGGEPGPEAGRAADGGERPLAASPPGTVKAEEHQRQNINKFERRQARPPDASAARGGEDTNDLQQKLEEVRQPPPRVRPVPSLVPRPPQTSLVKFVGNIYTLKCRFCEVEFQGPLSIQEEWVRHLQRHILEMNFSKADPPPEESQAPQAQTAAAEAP
Sequence (Q96SW2 whole entry, the tested form may be a part): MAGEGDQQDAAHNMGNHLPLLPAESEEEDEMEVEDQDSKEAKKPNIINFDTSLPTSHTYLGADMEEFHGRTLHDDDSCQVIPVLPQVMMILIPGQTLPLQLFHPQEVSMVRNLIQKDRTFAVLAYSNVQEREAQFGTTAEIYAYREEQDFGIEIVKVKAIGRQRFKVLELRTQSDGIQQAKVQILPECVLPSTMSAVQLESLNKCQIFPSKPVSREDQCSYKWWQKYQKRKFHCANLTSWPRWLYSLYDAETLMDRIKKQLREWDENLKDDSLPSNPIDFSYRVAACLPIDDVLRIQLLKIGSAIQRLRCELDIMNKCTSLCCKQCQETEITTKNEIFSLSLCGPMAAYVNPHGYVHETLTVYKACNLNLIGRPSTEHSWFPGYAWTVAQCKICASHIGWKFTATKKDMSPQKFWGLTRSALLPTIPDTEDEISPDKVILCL
Sequence (Q16531 whole entry partner, the tested form may be a part): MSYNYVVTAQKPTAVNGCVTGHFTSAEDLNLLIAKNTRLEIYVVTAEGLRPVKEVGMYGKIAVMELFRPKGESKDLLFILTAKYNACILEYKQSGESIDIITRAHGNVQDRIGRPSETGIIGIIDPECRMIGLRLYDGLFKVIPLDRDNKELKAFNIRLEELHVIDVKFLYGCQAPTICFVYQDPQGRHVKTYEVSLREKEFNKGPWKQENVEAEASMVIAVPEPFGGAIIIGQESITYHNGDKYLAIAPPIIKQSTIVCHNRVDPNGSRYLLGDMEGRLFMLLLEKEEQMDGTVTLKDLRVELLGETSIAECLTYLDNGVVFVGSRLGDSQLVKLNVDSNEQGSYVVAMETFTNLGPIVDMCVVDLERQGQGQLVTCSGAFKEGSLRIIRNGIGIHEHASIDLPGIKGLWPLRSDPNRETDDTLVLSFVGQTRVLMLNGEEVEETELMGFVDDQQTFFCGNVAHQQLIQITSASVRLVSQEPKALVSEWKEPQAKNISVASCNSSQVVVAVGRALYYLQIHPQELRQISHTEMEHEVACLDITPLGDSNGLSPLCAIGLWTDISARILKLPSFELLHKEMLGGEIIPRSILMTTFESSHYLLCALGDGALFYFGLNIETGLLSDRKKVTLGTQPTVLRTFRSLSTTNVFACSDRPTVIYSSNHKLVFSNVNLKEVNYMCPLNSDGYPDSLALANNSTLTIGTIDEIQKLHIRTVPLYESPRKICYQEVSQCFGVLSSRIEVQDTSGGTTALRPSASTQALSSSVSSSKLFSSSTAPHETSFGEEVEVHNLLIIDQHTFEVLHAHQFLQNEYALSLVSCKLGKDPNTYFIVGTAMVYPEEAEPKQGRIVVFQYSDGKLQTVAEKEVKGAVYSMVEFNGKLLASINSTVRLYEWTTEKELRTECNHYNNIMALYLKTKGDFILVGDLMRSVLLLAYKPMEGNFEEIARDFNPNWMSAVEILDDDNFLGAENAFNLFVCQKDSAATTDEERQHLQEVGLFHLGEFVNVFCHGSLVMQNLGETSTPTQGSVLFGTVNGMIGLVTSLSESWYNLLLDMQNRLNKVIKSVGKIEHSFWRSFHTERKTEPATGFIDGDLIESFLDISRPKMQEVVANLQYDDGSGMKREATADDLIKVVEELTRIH
Overview of recorded Dmax for various molecules
Value expressed in %; do not type the unit.

Please review the following examples before continuing.
>>> recorded_number("CN(C)c1cccc(C(=O)N2CCCC[C@H]2COc2ccc3c(c2)CN(C2CCC(=O)NC2=O)C3=O)c1 (some centres unmarked) [Compound I-72gg]")
24
>>> recorded_number("O=C1CCC(N2Cc3cc(OC[C@@H]4CCCCN4C(=O)c4ccccc4OC(F)(F)F)ccc3C2=O)C(=O)N1 (some centres unmarked) [Compound I-72dv]")
13.3
>>> recorded_number("O=C1CCC(N2Cc3cc(OC[C@@H]4CCCCN4CC4CCN(Cc5ccccc5)CC4)ccc3C2=O)C(=O)N1 (some centres unmarked) [Compound I-50aj]")
99
>>> recorded_number("O=C1CCC(N2Cc3cc(OC[C@H]4CCCCN4Cc4cccc5c4OCCO5)ccc3C2=O)C(=O)N1 (some centres unmarked)")
81.8

Exercise: # input molecule: O=C1CCC(N2Cc3cc(OC[C@H]4CCCCN4Cc4cccc(Cn5cccn5)c4)ccc3C2=O)C(=O)N1 (some centres unmarked) [Compound I-50en] ; wanted: its Dmax
Solution: 99.8
